biological target: DGKα (Homo sapiens (Human), UniProt P23743); assay: Human DGKα kinase activity inhibition assay (ADP-Glo); settings: recombinant full-length human DGKα, 55 μM ATP, 7 μM 1,2-dioleoyl-sn-glycerol, read-out: IC50 values of examples in in vitro human DGKa kinase activity inhibition assays
Sequence (P23743 other isoform, or with tags, fused parts or gaps): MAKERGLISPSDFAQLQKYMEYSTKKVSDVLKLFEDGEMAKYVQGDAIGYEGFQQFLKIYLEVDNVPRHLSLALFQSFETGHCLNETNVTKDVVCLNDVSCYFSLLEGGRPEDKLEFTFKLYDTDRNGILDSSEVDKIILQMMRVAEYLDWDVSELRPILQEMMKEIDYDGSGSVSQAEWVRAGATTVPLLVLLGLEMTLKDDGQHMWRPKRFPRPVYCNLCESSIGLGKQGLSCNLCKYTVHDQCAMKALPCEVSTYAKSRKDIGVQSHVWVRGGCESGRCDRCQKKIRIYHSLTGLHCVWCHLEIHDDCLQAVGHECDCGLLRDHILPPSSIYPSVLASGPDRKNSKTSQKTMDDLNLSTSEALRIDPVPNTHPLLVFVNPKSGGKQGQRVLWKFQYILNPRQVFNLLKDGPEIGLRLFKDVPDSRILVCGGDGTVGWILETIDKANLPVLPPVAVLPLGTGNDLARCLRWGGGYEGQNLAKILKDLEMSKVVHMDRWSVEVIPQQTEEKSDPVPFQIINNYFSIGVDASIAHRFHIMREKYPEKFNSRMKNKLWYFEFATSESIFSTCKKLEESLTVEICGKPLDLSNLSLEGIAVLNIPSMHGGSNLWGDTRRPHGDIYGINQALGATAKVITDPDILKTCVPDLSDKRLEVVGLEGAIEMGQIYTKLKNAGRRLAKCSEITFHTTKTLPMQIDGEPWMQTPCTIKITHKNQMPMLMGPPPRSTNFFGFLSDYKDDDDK
experimental.readout: IC50 (µM)
# unit: µM | format: bare number

Example cases with answers are listed next.
State the recorded IC50 for this entry: Cc1ccc2oc(C3CCN(c4c(C#N)c(=O)n(C)c5cc(P(C)(C)=O)ccc45)CC3)nc2c1
0.872

Next up: Cn1c(=O)c(C#N)c(N2CCC(c3nnc(-c4ccccc4)o3)CC2)c2cc(Br)ccc21
0.011

Further cases:
State the recorded IC50 for this entry: Cc1ccc2oc(C3CCN(c4c(C#N)c(=O)n(C)c5ccc(S(C)(=O)=O)cc45)CC3)nc2c1
0.067

Next up: CNC(=O)c1c(N2CCC(c3nc4cc(C)ccc4o3)CC2)c2ccccc2n(C)c1=O
0.027

Next up: Cc1ccc2oc(C3CCN(c4c(C#N)c(=O)n(C)c5cc(N(C)CC#N)ccc45)CC3)nc2c1
0.0008

* * *

molecular target: DGKα (Homo sapiens (Human), UniProt P23743); experiment: Human DGKα kinase activity inhibition assay (ADP-Glo); settings: recombinant full-length human DGKα, 55 μM ATP, 7 μM 1,2-dioleoyl-sn-glycerol, read-out: IC50 values of examples in in vitro human DGKa kinase activity inhibition assays
// boundary case: IC50 equal to 10 nM maps to 0.0; strictly smaller maps to 1.0

Here are 5 compounds together with their reported answers.
Given the entry Cn1c(=O)c(C#N)c(N2CCC(c3ccc(-c4ccccc4)cc3)CC2)c2ccccc21 , would its reported IC50 be below 10 nM?
0.0

Next up: COc1ccc2c(N3CCC(C)(c4nc5cc(C)ccc5o4)CC3)c(C#N)c(=O)n(C)c2c1
1.0

Next up: Cc1ccc2oc(C3CCN(c4c(C#N)c(=O)n(C)c5cc(F)ccc45)CC3)nc2c1
0.0

Next up: Cc1ccc2oc(C3CCN(c4c(C#N)c(=O)n(C)c5cc(OC6CCOCC6)ccc45)CC3)nc2c1
0.0

Next up: COc1ccc2cc(C3CCN(c4c(C#N)c(=O)n(C)c5ccccc45)CC3)ccc2c1
0.0

Now look at this one.
Given the entry Cn1ccc2cc(C3CCN(c4c(C#N)c(=O)n(C)c5ccccc45)CC3)ccc21 , would its reported IC50 be below 10 nM?
1.0

* * *

molecular target: DGKα (Homo sapiens (Human)); test: Human DGKα kinase activity inhibition assay (ADP-Glo); conditions: recombinant full-length human DGKα, 55 μM ATP, 7 μM 1,2-dioleoyl-sn-glycerol, read-out: IC50 values of examples in in vitro human DGKa kinase activity inhibition assays
pIC50: −log10 of the molar value.
So basically: pIC50 at 8 or higher? That is criterion met. Lower than 8? That is criterion not met.

Here are 5 molecules together with their reported answers.
State whether the measured pIC50 reaches 8, counting equality as reaching it, for CN(C)c1ccc(C2CCN(c3c(C#N)c(=O)n(C)c4ccccc34)CC2)cc1 [Example 46]
criterion met

Next up: Cc1ccc2oc(C3CCN(c4c(C(N)=O)c(=O)n(C)c5cc([N+](=O)[O-])c(C)cc45)CC3)nc2c1 [Example 510]
criterion not met

Next up: Cc1ccc2oc(C3CCN(c4c(C#N)c(=O)n(C)c5ccccc45)CC3C)nc2c1 (mixture of isomers) [Example 111]
criterion met

Next up: Cc1ccc2c(N3CCC(c4nc5ccccc5o4)CC3)c(C#N)c(=O)n(C)c2c1 [Example 219]
criterion met

Next up: COc1ccc(C2CCN(c3c(C#N)c(=O)n(C)c4ccc(S(C)(=O)=O)cc34)CC2)cc1 [Example 178]
criterion not met

Now look at this one.
State whether the measured pIC50 reaches 8, counting equality as reaching it, for Cc1ccc2c(c1)c(N1CCC(c3nc4cc(C(C)C)ccc4o3)CC1)c(C(N)=O)c(=O)n2C [Example 200]
criterion met
